Data origin: patent US8629144B2

# experiment_notes: Absorption and plasma kinetics after oral administration of salts to rat
# condition_label: male, SD, rat, plasma, po, 10 mg/kg
Where a name gives a salt, the structure may show the parent alone.
observable: half-life (min)
Output spec: scalar in min, unitless text.

Noted for Cn1cc(-c2ccc3nnc(C(F)(F)c4ccc5ncccc5c4)n3n2)cn1 [HCl salt] : its half-life reads 210

---

# experiment_notes: Water solubility of salts of compound (I)
# Assay type: physicochemical
# condition_label: saturated solution in water, 24 hours at 20° C.
# Method: An excess of different salts of compound (I) was agitated with water during 24 hours at 20° C. Following filtration, the concentration of compound (I) in the solution was determined by UV spectrometry.
observable: Measured pH

compound: CCS(=O)(=O)O.Cn1cc(-c2ccc3nnc(C(F)(F)c4ccc5ncccc5c4)n3n2)cn1 [esylate salt]
value: pH = 2.1
--
compound: Cc1ccc(S(=O)(=O)O)cc1.Cn1cc(-c2ccc3nnc(C(F)(F)c4ccc5ncccc5c4)n3n2)cn1 [tosylate salt]
value: pH = 2.1

---

# experiment_notes: Absorption and plasma kinetics after oral administration of salts to rat
# condition_label: male, SD, rat, plasma, po, 10 mg/kg
Where a name gives a salt, the structure may show the parent alone.
observable: Tmax (h)
Only the number, expressed in h, is required.

Measured Tmax, Cn1cc(-c2ccc3nnc(C(F)(F)c4ccc5ncccc5c4)n3n2)cn1 [HCl salt] : 1.6

---

# experiment_notes: Crystallographic stability of Form I on storage (TGA, DSC, XRPD, IR)
# Type: physicochemical
# condition_label: six weeks open storage, RT/75% RH
observable: TGA <240° C. (%)
Express your answer in %, writing the number without its unit.

The compound identified as Cn1cc(-c2ccc3nnc(C(F)(F)c4ccc5ncccc5c4)n3n2)cn1 [Form I] registered its TGA <240° C. at 0.57

---

# experiment_notes: Aqueous solubility of Forms I, III and hydrate at different pH
# Format: physicochemical
# condition_label: aqueous medium, simulated gastric fluid, thermodynamic from solid, 0.1 HCl; read-out: Solubility
observable: Solubility (µg/mL)
Record the value in µg/mL, omitting the unit from your answer.

The recorded Solubility for Cn1cc(-c2ccc3nnc(C(F)(F)c4ccc5ncccc5c4)n3n2)cn1 [Form I] is 1300

---

# experiment_notes: Crystallographic stability of Form I on storage (TGA, DSC, XRPD, IR)
# Format: physicochemical
# condition_label: six weeks open storage, 50° C.
observable: TGA <240° C. (%)
Reply with just the number (in %).

Quick note, TGA <240° C. for Cn1cc(-c2ccc3nnc(C(F)(F)c4ccc5ncccc5c4)n3n2)cn1 [Form I] landed at 0.57

---

# experiment_notes: Absorption and plasma kinetics after oral administration of salts to rat
# condition_label: male, SD, rat, plasma, po, 10 mg/kg
Structures can show the parent of a compound that is named as a salt.
observable: Cmax (ng/mL)
Entry rule: numbers only, all in ng/mL.

Cmax reported for this molecule Cn1cc(-c2ccc3nnc(C(F)(F)c4ccc5ncccc5c4)n3n2)cn1 [HCl salt] : 4430

---

# experiment_notes: Absorption and plasma kinetics after oral administration of salts to rat
# condition_label: male, SD, rat, plasma, po, 10 mg base eq./kg
Structures can show the parent of a compound that is named as a salt.
observable: concentration at 2 h (ng/mL)
Reply with just the number (in ng/mL).

Measured concentration at 2 h, Cn1cc(-c2ccc3nnc(C(F)(F)c4ccc5ncccc5c4)n3n2)cn1 [HCl salt] : 4290
